From: patent US12760268

# TEST_TARGET: Transferrin receptor 1 (TfR1, CD71), endogenous on cells (Homo sapiens, UniProt P02786 SEQ:89-760)
# Sequence (P02786 89-760): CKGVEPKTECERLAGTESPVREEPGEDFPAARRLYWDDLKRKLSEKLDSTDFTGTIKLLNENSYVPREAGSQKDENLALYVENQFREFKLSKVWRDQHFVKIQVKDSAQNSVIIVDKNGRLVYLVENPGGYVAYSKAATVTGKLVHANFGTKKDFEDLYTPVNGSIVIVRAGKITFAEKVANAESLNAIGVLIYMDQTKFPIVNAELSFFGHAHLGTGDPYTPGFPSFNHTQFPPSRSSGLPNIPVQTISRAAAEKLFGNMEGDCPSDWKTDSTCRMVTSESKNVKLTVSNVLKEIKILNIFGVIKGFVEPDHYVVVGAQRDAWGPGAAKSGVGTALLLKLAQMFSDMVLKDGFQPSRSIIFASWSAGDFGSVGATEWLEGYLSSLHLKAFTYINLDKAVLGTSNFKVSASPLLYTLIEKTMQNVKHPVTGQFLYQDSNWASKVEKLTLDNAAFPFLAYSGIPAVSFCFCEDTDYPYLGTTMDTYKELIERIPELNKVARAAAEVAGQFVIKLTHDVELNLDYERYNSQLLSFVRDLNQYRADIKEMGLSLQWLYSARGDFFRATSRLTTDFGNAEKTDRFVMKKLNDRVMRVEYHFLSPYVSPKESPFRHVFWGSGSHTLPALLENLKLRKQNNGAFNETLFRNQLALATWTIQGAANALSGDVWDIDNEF
# ASSAY_EXPLANATION: flow; H9 cells, apparent Kd, 4 C
# EXPERIMENTAL_CONTEXT: chain copies: 2 (stated homodimer); label: 5'-FAM or 5'-Cy5; multi-hairpin with extended stem
ENDPOINT_LABEL: Kd (nM)
Hi! Could you send only the number? It should be in nM, unit omitted.

// recorded Kd for JBA8.26 (ssDNA) DNA: ATCCAGAGTGACGCAGCAGCGTAAAGGGGGTGTTTGTGCGGTGTGGAGTGCGCGCGCTGCTGCTGGACACGGTGGCTTAGT : 3.3
